The compounds listed here are annotated with their amount of TNF-α in the supernatant, Okadaic acid alone = 100%.
- Test system: TNF-α production or secretion by human leukemia cells HL-60 (Okadaic acid stimulation)
- test summary: Influence on TNF-α production or secretion by HL-60 cells stimulated by Okadaic acid (ELISA of supernatant)
- Assay type: cell-based
- condition parameters: compound 10 nM; HL-60, Okadaic acid 50 nM, 16 hours (Table 8)
reported metric: amount of TNF-α in the supernatant, Okadaic acid alone = 100% (%)

- structure string: "C[C@H](c1ccccc1)N1C(=O)c2c(F)c(F)c(F)c(F)c2C1=O"
  observed measurement: 55
- structure string: "C[C@H](C1CCCCC1)N1C(=O)c2c(F)c(F)c(F)c(F)c2C1=O"
  observed measurement: 95
- structure string: "C[C@H](c1cccc2ccccc12)N1C(=O)c2c(F)c(F)c(F)c(F)c2C1=O"
  observed measurement: 88
- structure string: "C[C@H](c1ccccc1)N1C(=O)c2cccc([N+](=O)[O-])c2C1=O"
  observed measurement: 104
- structure string: "C[C@@H](c1ccccc1)N1C(=O)c2cccc([N+](=O)[O-])c2C1=O"
  observed measurement: 99
- structure string: "C[C@@H](c1ccccc1)N1C(=O)c2c(F)c(F)c(F)c(F)c2C1=O"
  observed measurement: 99
- structure string: "C[C@@H](c1cccc2ccccc12)N1C(=O)c2c(F)c(F)c(F)c(F)c2C1=O"
  observed measurement: 102
- structure string: "C[C@@H](C1CCCCC1)N1C(=O)c2c(F)c(F)c(F)c(F)c2C1=O"
  observed measurement: 101

Entry source: patent US6429212B1
